The measurements presented in this section are drawn from ChEMBL document CHEMBL1124020.

TARGET OR TEST SYSTEM: DNA polymerase catalytic subunit (Herpes simplex virus (type 1 / strain 17))
METHOD: Percentage of triphosphates (TP) in the second step of staggered assay mixture from step 1 was incubated with GMP kinase and crude extract of HSV-1 infected HeLa cells over night
Format: functional, cell-based
REPORTED CONDITIONS: Homo sapiens
In this section, each of the molecules is paired with its reported TP.
Write it as a number; the unit % goes unstated.

COMPOUND STRUCTURE STRING: Nc1nc2c(ncn2COC(CO)CO)c(=O)[nH]1
TP / %: 84

COMPOUND STRUCTURE STRING: Nc1nc(O)c2ncn(C[C@H]3C[C@H]3CO)c2n1
TP / %: 76

COMPOUND STRUCTURE STRING: Nc1nc(O)c2ncn(CCC(CO)CO)c2n1
TP / %: 75

COMPOUND STRUCTURE STRING: Nc1nc(O)c2ncn(CC#CCO)c2n1
TP / %: 0

COMPOUND STRUCTURE STRING: Nc1nc(O)c(N=O)c(NC[C@H]2C[C@@H]2CO)n1
TP / %: 0

Form field: TP recorded for Cc1cn(C[C@H]2C[C@H]2CO)c(=O)[nH]c1=O with DNA polymerase catalytic subunit (Herpes simplex virus (type 1 / strain 17)) (enter value)
0

Hi! What's the reported TP for Nc1nc(O)c2ncn(C/C=C\CO)c2n1 on DNA polymerase catalytic subunit (Herpes simplex virus (type 1 / strain 17))?
64

Identify the measured TP of Nc1nc(O)c2ncn(C/C=C/CO)c2n1 for DNA polymerase catalytic subunit (Herpes simplex virus (type 1 / strain 17)).
0

====

TARGET OR TEST SYSTEM: DNA polymerase catalytic subunit (Herpes simplex virus (type 1 / strain 17))
Sequence (whole entry): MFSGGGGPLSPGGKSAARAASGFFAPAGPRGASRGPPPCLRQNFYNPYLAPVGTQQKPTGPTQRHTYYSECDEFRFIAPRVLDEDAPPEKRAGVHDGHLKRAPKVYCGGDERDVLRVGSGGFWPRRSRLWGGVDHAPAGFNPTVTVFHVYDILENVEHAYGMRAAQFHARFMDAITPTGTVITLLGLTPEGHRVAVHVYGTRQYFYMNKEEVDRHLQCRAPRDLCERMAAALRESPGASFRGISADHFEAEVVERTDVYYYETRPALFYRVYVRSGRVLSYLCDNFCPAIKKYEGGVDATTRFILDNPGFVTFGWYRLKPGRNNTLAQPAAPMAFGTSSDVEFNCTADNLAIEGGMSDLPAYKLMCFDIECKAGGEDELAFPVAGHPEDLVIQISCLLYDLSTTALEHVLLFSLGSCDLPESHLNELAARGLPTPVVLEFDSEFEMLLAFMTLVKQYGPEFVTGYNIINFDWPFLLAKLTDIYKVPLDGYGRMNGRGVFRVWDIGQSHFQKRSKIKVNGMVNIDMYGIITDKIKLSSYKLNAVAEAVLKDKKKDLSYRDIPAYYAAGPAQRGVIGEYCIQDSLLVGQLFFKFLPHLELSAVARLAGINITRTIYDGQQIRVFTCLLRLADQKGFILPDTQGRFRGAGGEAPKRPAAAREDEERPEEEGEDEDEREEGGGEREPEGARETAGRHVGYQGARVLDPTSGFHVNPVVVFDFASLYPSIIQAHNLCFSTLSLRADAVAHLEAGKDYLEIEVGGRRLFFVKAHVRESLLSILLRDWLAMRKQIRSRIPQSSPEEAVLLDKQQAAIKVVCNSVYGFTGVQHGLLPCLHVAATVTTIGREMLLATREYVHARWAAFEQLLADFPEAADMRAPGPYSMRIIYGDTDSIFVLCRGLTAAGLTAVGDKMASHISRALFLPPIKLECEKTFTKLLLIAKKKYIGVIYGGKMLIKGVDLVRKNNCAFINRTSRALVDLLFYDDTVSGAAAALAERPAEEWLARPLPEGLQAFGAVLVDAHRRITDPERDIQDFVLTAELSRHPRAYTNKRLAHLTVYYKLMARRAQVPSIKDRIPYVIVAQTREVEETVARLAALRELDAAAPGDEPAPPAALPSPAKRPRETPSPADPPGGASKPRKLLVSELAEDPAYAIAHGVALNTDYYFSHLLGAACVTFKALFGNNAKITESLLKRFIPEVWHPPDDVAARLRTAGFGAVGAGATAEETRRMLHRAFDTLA
METHOD: Percentage of monophosphates (MP) in the second step of staggered assay mixture from step 1 was incubated with GMP kinase and crude extract of HSV-1 infected HeLa cells over night
Type: functional, cell-based
Listing: MP of selected molecules
All answers are understood in %, so give the number only.

The examples below pair each entry with its known result.
COMPOUND STRUCTURE STRING: Nc1nc(O)c2ncn(C/C=C\CO)c2n1
TEST VALUE: 12

COMPOUND STRUCTURE STRING: Nc1nc(O)c2ccn(C[C@H]3C[C@H]3CO)c2n1
TEST VALUE: 9

COMPOUND STRUCTURE STRING: Nc1nc(O)c2ncn(C[C@H]3C[C@@H]3CO)c2n1
TEST VALUE: 9

COMPOUND STRUCTURE STRING: Nc1nc(O)c2ncn(CC#CCO)c2n1
TEST VALUE: 0

COMPOUND STRUCTURE STRING: Nc1ncnc2c1ncn2C[C@H]1C[C@@H]1CO
TEST VALUE: 0

COMPOUND STRUCTURE STRING: Nc1nc(O)c2nnn(C[C@H]3C[C@H]3CO)c2n1
TEST VALUE: 2

# get_value(readout='MP', item= Nc1nc(O)c(N=O)c(NC[C@H]2C[C@H]2CO)n1 )
0

Item Nc1ncnc2c1ncn2C/C=C\CO has what recorded MP?
0

====

METHOD: Inhibition of DNA polymerase
Design: concentration or dose not given beside the values
REPORTED CONDITIONS: concentration not given here
MEASUREMENT KIND: inhibition (%)
Give just the numeric value; % need not be written.

Here's what some known entries look like.
COMPOUND STRUCTURE STRING: Nc1nc(O)c(N=O)c(NC[C@H]2C[C@H]2CO)n1
TEST VALUE: 0
--
COMPOUND STRUCTURE STRING: Nc1nc(O)c2ccn(C[C@H]3C[C@H]3CO)c2n1
TEST VALUE: 0
--
COMPOUND STRUCTURE STRING: Nc1nc(O)c2ncn(CCC(CO)CO)c2n1
TEST VALUE: 8

Can you look up the measured inhibition of Nc1nc2c(ncn2COC(CO)CO)c(=O)[nH]1 for me?
22

Data request, read-out inhibition, for Nc1nc2c(ncn2CCCCO)c(=O)[nH]1
20

Which inhibition value is on record for Nc1nc(O)c2ncn(CC#CCO)c2n1 ?
5

====

Documented TP across a set of compounds
TARGET OR TEST SYSTEM: DNA polymerase catalytic subunit (Herpes simplex virus (type 1 / strain 17))
METHOD: Percentage of triphosphates (TP) in the second step of staggered assay mixture from step 1 was incubated with GMP kinase and crude extract of HSV-1 infected HeLa cells over night
Assay type: functional, cell-based
REPORTED CONDITIONS: Homo sapiens
Please don't drop the unit; write it after the number.

Which TP is reported for this compound? Nc1nc2c(ncn2CCCCO)c(=O)[nH]1
17%

Given Nc1nc(O)c2nnn(C[C@H]3C[C@H]3CO)c2n1 , state its recorded TP.
55%

What value of TP has been recorded for this entry: Nc1ncnc2c1ncn2C[C@H]1C[C@@H]1CO
0%

Quick one: TP for Nc1nc(O)c(N=O)c(NC[C@H]2C[C@H]2CO)n1 ?
21%

Given the entry Nc1nc(O)c2ccn(C[C@H]3C[C@H]3CO)c2n1 , report its measured TP.
0%

Need TP, item Nc1ncnc2c1ncn2CC1CC1(CO)CO (configuration not stated)
0%

Any idea what its TP is? The compound is Nc1nc(O)c2ncn(C[C@H]3C[C@@H]3CO)c2n1
2%

====

TARGET OR TEST SYSTEM: DNA polymerase catalytic subunit (Herpes simplex virus (type 1 / strain 17))
METHOD: Percentage of diphosphates (DP) in the second step of staggered assay mixture from step 1 was incubated with GMP kinase and crude extract of HSV-1 infected HeLa cells over night
Assay type: functional, cell-based
MEASUREMENT KIND: DP (%)
Report as a plain number; the unit % is understood.

These recorded examples may help you get a feel for the data.
COMPOUND: Nc1nc(O)c2ncn(C/C=C/CO)c2n1
MEASUREMENT KIND: DP
TEST VALUE: 0
--
COMPOUND: Nc1nc2c(ncn2COCCO)c(=O)[nH]1
MEASUREMENT KIND: DP
TEST VALUE: 9
--
COMPOUND: Cc1cn(C[C@H]2C[C@H]2CO)c(=O)[nH]c1=O
MEASUREMENT KIND: DP
TEST VALUE: 0

// returns reported DP for input Nc1nc(O)c2ncn(CC#CCO)c2n1
0

Item Nc1ncnc2c1ncn2C[C@H]1C[C@@H]1CO has what recorded DP?
0

Entry Nc1nc(O)c(N=O)c(NC[C@H]2C[C@H]2CO)n1 : reported DP = ?
0

What does the record list as DP for Nc1ncnc2c1ncn2C/C=C\CO ?
0

What value of measured DP is listed for Nc1nc2c(ncn2COC(CO)CO)c(=O)[nH]1 ?
10

Sample Nc1ncnc2c1ncn2CC1CC1(CO)CO (stereo not drawn) — what was its DP?
0

Recorded DP of Nc1nc(O)c2ncn(C[C@H]3C[C@H]3CO)c2n1 , please.
0
